Below, each entry is listed alongside its reported GI50.
# Tested on: DMS-114
# PROTOCOL_DESCRIPTION: NCI tumour cell line growth inhibition, 48 h
Calls of active or inactive are those of the source. No stated cut-off is given here; in the data, active = GI50 up to about 1.1 µM and inactive = higher. Where a SMILES comes first, the peptide text is derived from it. [ ]: non-standard residue; d: D form. The star is where a group is joined. ξ: configuration not given here. NMeF = CN[C@@H](Cc1ccccc1)C(=O)O; NMeV = CN[C@H](C(=O)O)C(C)C; ξNMeN = CNC(CC(N)=O)C(=O)O; NMeA = CN[C@@H](C)C(=O)O; ξNMeV = CNC(C(=O)O)C(C)C; Boc = CC(C)(C)OC(=O)*

Task item: Field request: GI50 | item: `COc1cc2ccc3c4cc(OC)c(OC(C)C)cc4cnc3c2cc1OC`
Reply: > 100 µM (inactive)

Task item: # iterate: COC(=O)[C@H](C)N(C)C(=O)C(CC(N)=O)N(C)C(=O)[C@H](Cc1ccccc1)N(C)C(=O)[C@@H]1CCCN1C(=O)[C@H](C(C)C)N(C)C(=O)C(C(C)C)N(C)C(=O)[C@@H](NC(=O)OC(C)(C)C)C(C)C (stereo partly drawn) (Boc-V[ξNMeV][NMeV]P[NMeF][ξNMeN][NMeA]-OMe)
Reply: 16.8 µM (inactive)

Task item: # iterate: `O=[N+]([O-])c1ccc(/C=N/C2CCCCC2)cc1`
Reply: > 100 µM (inactive)

Task item: # iterate: `O=c1cnn2c(n1)sc1ccc3ccccc3c12`
Reply: > 100 µM (inactive)

Task item: # iterate: `CCCCc1c2c(nc3c1CCC/C3=C\c1ccccc1)/C(=C/c1ccccc1)CCC2`
Reply: > 100 µM (inactive)

Task item: # iterate: `CCN(CC)CC(=N)N(CC)c1ccccc1`
Reply: > 100 µM (inactive)

Task item: # iterate: `CCO/C=C1\N=C(c2ccccc2Br)OC1=O`
Reply: > 100 µM (inactive)

Task item: # iterate: `Cc1ccc(C)c2sc3cc(=O)ccc-3nc12`
Reply: 30.5 µM (inactive)

Task item: # iterate: `O=S1(=O)OCCOS(=O)(=O)C1(Cl)Cl`
Reply: > 100 µM (inactive)

Task item: # iterate: NC(=O)c1coc(C2OC(CO)C(O)C2O)n1 (stereo not drawn)
Reply: > 100 µM (inactive)

Task item: # iterate: `CCCCC1=C(Br)C(=C(Br)Br)OC1=O`
Reply: 2.07 µM (inactive)

Task item: # iterate: `O=C1[C@@H]2C(c3ccccc3[N+](=O)[O-])=NO[C@@H]2C(=O)N1c1ccc(Cc2ccc(N3C(=O)[C@H]4C(c5ccccc5[N+](=O)[O-])=NO[C@H]4C3=O)cc2)cc1`
Reply: > 100 µM (inactive)

Task item: # iterate: `COc1ccccc1/N=N/C(C(=O)c1ccccc1)C(=O)c1ccccc1`
Reply: 15.2 µM (inactive)

---

# Test system: OVCAR-3
# PROTOCOL_DESCRIPTION: NCI tumour cell line growth inhibition, 48 h
Active and inactive are the calls of the source. Rule as the data show it: active = GI50 up to about 1.1 µM and inactive = higher.
MEASURED_ENDPOINT: GI50

Task item: Field request: GI50 | item: `O=[N+]([O-])c1ccccc1S(=O)(=O)N1CCCc2cc(Cl)ccc21`
Reply: 26.2 µM (inactive)

Task item: # iterate: `NC(=S)N/C=C1\C(=O)Oc2ccccc2C1=O`
Reply: 37.3 µM (inactive)

Task item: # iterate: CC1C2CC(CC2(C)O)C1(C)C (stereo unspecified)
Reply: > 100 µM (inactive)

Task item: # iterate: `CC(=O)OCCCCn1cnc2nc(Nc3ccccc3)nc(Cl)c21`
Reply: 55.1 µM (inactive)

Task item: # iterate: COc1cc2cc(C(=O)N3CC(CCl)c4ccccc43)[nH]c2c(OC)c1OC (stereo unspecified)
Reply: > 100 µM (inactive)

Task item: # iterate: CC1(C)OCC(/C=C\C(O)CC2(C)OCCO2)CO1 (stereo unspecified)
Reply: > 100 µM (inactive)

Task item: # iterate: `CCN(CC)Cc1ccc2cccnc2c1O`
Reply: 2.88 µM (inactive)

Task item: # iterate: CC(C)(C)c1ccc(OC2CCO2)cc1 (stereo unspecified)
Reply: 34.5 µM (inactive)

Others:
Task item: Field request: GI50 | item: `C1CCCCC2(CCCCCCCCC3(CCC1)SCCS3)SCCS2`
Reply: > 100 µM (inactive)

Task item: # iterate: COc1cc(C2c3cc4c(cc3OC(N3CCCCC3)C2C)OCO4)cc(OC)c1OC (stereo unspecified)
Reply: 1.9 µM (inactive)

Task item: # iterate: `Cc1cn2c(/C=N/NC(=N)N)c(-c3cccc([N+](=O)[O-])c3)nc2s1`
Reply: 1.26 µM (inactive)

Task item: # iterate: COc1cccc2c1C(=O)c1c(O)c3c(c(O)c1C2=O)C[C@@](O)(C(C)=O)C[C@@H]3OC1CC(N(Cc2ccccc2)Cc2ccccc2)C(O)C(C)O1 (stereo partly specified)
Reply: 22.8 µM (inactive)

Task item: # iterate: `Cn1c(=O)c2[nH]c(CCC(=O)O)nc2n(C)c1=O`
Reply: > 100 µM (inactive)

Task item: # iterate: `CO[C@@]12CC(=O)/C(=C(O)\C=C\c3ccccc3)C(=O)[C@]1(OC)Cc1ccccc1O2`
Reply: 26.2 µM (inactive)

---

# Tested on: RXF 393
# PROTOCOL_DESCRIPTION: NCI tumour cell line growth inhibition, 48 h
The source made the active and inactive calls. No stated cut-off is given here; in the data, active = GI50 up to about 1.1 µM and inactive = higher.
Respond with a class label; see active, inactive

Task item: Fill in: this test's call for `CCCCCCCCCC(=O)CC(=O)c1ccc(O)cc1O` is ___
Reply: inactive

Task item: # iterate: `O=C(O)c1ccc(S(=O)(=O)c2ccccc2)c([N+](=O)[O-])c1`
Reply: inactive

Task item: # iterate: `O=C(NCCCl)N(O)C(=O)Nc1ccccc1`
Reply: inactive

Below: the item to evaluate.
Task item: Fill in: this test's call for `C(=N/c1ccccc1C1SCCCS1)/c1ccccc1` is ___
Reply: inactive

---

# System: HT-29
# PROTOCOL_DESCRIPTION: NCI tumour cell line growth inhibition, 48 h
Activity calls are given as the source filed them. Rule as the data show it: active = GI50 up to about 1.1 µM and inactive = higher.
Respond with a class label; see Y for active, N for inactive

Worked examples follow.
Task item: Fill in: this test's call for `CCCCC1=C(Br)C(=C(Br)Br)OC1=O` is ___
Reply: N

Task item: # iterate: CC(=O)O[C@H]1CC[C@@]2(C)C(=C/C(=N\[N+](=O)[O-])[C@H]3C4CCC([C@H](C)CCCC(C)C)[C@@]4(C)CCC32)C1 (some centres not stated)
Reply: N

Task item: # iterate: `CN1C(=O)N/C(=C\c2ccc(S(=O)(=O)N/N=C/c3ccccc3)cc2)C1=O`
Reply: N

Others:
Task item: Fill in: this test's call for `CNc1cccc(-c2cc(O)c3cc4c(cc3n2)OCO4)c1` is ___
Reply: Y

Task item: # iterate: `CN(C)CCCNC1=C(Cl)C(=O)c2c(O)ccc(O)c2C1=O`
Reply: N

Task item: # iterate: N#CC(NNC(=O)Cc1ccccc1)c1ccc(O)cc1 (configuration not stated)
Reply: N

Task item: # iterate: COc1ccc2c(c1)CC1C3(CCCCC23)CC[N+]1(C)C (configuration not stated)
Reply: N

Task item: # iterate: `CN1CCC/C1=C1\C(=O)c2cccn2C1=O`
Reply: N

Task item: # iterate: `O=C(NC/C(Cl)=C/Cl)Nc1cccc2c1CCCC2`
Reply: N

Task item: # iterate: `Clc1ccc(/N=C/C=C/Nc2ccc(Cl)cn2)nc1`
Reply: N

Task item: # iterate: COC(=O)C1=C(C)N(NC(=O)c2cccc(Cl)c2)C(C)(O)C12CCOC2=O (configuration not stated)
Reply: N

Task item: # iterate: `C/C(=N/NC(=S)N(Cc1ccccn1)Cc1ccccn1)c1cnccn1`
Reply: Y

---

# Tested on: 786-0
# PROTOCOL_DESCRIPTION: NCI tumour cell line growth inhibition, 48 h
Active and inactive are the calls of the source. Rule as the data show it: active = GI50 up to about 1.1 µM and inactive = higher.
Respond with a class label; see 1 for active, -1 for inactive

Task item: Fill in: this test's call for CC(C)(C)OC(=O)[C@@H]1ON2O[C@H](OC3CCCC3(c3ccccc3)c3ccccc3)C[C@H]3OC(=O)[C@@H]1[C@H]32 (stereo partly specified) is ___
Reply: -1

Task item: # iterate: `CO[C@H]1C[C@H](O[C@H]2CC[C@]3(C=O)[C@H]4CC[C@]5(C)[C@@H](C6=CC(=O)OC6)CC[C@]5(O)[C@@H]4CC[C@]3(O)C2)O[C@H](C)[C@H]1O[C@@H]1O[C@H](CO[C@@H]2O[C@H](CO)[C@@H](O)[C@H](O)[C@H]2O)[C@@H](O)[C@H](O)[C@H]1O`
Reply: 1

Task item: # iterate: `CN1CCC/C1=C1\C(=O)c2cccn2C1=O`
Reply: -1

Task item: # iterate: COC(=O)[C@]1(c2cc3ccccc3n2S(=O)(=O)c2ccccc2)CC2CN(C(=O)OCc3ccccc3)C1C1OC(C)(C)OC21 (stereo partly specified)
Reply: -1

Task item: # iterate: Cc1c(O)c(OC2OC(CO)C(O)C(O)C2O)cc2c1CC[C@@H]1C2(C)C(=O)C[C@]2(C)[C@@H]([C@@](C)(O)C(O)/C=C/C(C)(C)O)[C@H](O)C[C@@]12C (stereo partly specified)
Reply: -1

Task item: # iterate: CC(=O)NC(CC(C)C)C(=O)NC(Cc1ccccc1)C(=S)N1CCCC1 (stereo unspecified)
Reply: -1
